- target.of.assay: T1, IL10Rα/IL2Rγ receptor (human) (UniProt Q13651)
- T1 sequence (looked up) 1: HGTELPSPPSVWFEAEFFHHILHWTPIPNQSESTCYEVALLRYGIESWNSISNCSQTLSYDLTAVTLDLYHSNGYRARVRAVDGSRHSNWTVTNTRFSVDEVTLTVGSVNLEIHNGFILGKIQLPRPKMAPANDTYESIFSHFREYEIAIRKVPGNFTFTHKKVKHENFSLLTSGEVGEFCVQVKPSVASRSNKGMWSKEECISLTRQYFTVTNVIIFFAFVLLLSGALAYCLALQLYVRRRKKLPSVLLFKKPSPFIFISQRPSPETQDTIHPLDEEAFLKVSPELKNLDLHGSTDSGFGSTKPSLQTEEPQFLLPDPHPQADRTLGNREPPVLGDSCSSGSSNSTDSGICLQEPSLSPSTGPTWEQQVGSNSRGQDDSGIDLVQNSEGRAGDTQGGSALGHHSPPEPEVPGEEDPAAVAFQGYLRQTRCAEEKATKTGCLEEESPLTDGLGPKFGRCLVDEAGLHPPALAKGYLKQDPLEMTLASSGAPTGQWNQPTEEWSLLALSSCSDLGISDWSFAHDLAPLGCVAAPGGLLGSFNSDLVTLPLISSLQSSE
- T1 sequence (looked up) 2: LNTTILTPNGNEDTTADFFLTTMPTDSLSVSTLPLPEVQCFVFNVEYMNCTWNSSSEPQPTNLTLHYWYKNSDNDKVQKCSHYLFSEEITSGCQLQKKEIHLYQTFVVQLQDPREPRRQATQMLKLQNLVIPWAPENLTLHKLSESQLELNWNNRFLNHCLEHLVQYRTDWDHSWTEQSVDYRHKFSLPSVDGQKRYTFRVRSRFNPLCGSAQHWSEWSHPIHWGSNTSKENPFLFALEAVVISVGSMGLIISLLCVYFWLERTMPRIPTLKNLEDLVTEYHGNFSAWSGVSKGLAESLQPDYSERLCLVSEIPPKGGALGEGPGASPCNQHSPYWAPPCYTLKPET
- test.details: cell-based or functional assay
measure.name: IL-1β secretion, LPS treated monocytes, at 0.1 µM (pg/mL)
Form entry: value (pg/mL) — number only.

q: Consider the binder hIL10Ra_VHH14 - hIL2Rg_VHH19, linker …, tag his (bispecific antibody, not shown: small tags and cut ends) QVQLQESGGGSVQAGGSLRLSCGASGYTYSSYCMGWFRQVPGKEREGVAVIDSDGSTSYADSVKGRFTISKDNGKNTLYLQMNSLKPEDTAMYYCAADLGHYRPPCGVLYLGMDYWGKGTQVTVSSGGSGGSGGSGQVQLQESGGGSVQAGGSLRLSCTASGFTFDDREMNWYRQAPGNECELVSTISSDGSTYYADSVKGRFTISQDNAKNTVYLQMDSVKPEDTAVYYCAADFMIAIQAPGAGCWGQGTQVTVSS and give its recorded IL-1β secretion, LPS treated monocytes, at 0.1 µM.
a: 5240

q: Using the record for hIL10Ra_VHH14 - hIL2Rg_VHH19, linker GGGSGGGS, tag his (bispecific antibody, not shown: small tags and cut ends) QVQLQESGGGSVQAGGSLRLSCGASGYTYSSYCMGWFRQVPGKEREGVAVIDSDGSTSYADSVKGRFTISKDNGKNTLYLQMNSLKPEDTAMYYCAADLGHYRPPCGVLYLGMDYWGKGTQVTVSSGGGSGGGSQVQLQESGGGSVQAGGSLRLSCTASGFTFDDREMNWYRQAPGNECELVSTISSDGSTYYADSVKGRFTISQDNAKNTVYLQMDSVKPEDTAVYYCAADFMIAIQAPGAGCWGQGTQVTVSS , state its measured IL-1β secretion, LPS treated monocytes, at 0.1 µM.
a: 5590

With those in mind, consider the next binder.
q: Please look at this binder and report its IL-1β secretion, LPS treated monocytes, at 0.1 µM: hIL10Ra_VHH14 - hIL2Rg_VHH19, linker GGGS, tag Fc (bispecific antibody, not shown: a dimerising Fc or GST) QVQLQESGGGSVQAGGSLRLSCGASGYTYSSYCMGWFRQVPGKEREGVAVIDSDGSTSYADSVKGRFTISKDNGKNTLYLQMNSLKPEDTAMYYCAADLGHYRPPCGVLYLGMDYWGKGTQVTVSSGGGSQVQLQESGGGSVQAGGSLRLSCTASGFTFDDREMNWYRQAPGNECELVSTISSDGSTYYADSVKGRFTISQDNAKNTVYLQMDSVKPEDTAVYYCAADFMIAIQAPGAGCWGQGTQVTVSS
a: 4020
